For each record, write down the corresponding inhibition.
System: Human immunodeficiency virus 1
assay_method_text: MMV: HIV CXCR4-tropic env NL4-3 pseudovirus assay produces luciferase signal in lieu of replicating viral particles Day 3 pi, U87-CD4-CXCR4, % inhibition at 5 mM compound
Type: functional
Parameters: dose or concentration left out as unconfirmed
setup_conditions: Human immunodeficiency virus 1, NL4-3, U87.CD4.CXCR4, 72 h
Give the value in % but do not write % after it.

Tell me the measured inhibition of COc1ccc(C2NCCc3c2[nH]c2ccccc32)cc1CN1CCN(c2ccc(F)cc2)CC1.Cl (stereo not drawn) , please. 3

Tell me the measured inhibition of CCOc1cc2c(cc1OCC)C(c1cc(C)c(O)c(C)c1)NCC2.Cl (stereo not drawn) , please. 5

Tell me the measured inhibition of CCOC(=O)c1cnc2ccc(OC)cc2c1Nc1ccc(N2CCN(C)CC2)cc1 , please. 6

Tell me the measured inhibition of Br.Cc1ccc(C)c(-c2csc(Nc3ccc(C)c(C)c3)n2)c1 , please. -1

Tell me the measured inhibition of COc1ccc(CN2CCN(Cc3ccccc3)CC2)c(O)c1 , please. -2

Tell me the measured inhibition of Br.CCn1c2c(c(=N)c3c1CCC3)CCCC2 , please. -2

Tell me the measured inhibition of CN(C)CCCNc1c2ccccc2nc2ccccc12 , please. 1

Tell me the measured inhibition of CCN(CC)CCCNc1ccnc2cc3ccccc3cc12 , please. 5

* * *

For each record, write down the corresponding % Cell Death.
assay_method_text: MMV: MTT Cytotoxicity Assay Day 7 pi of Assay #10 (NO washout), U87-CD4-CCR5 cells, % cell death @ 5mM compound
Type: toxicity, cell-based
setup_conditions: human, u87-cd4-ccr5, 5000 µM
# output: bare number, no unit

Tell me the measured % Cell Death of CCC(=O)Nc1nnc(Cc2ccc(OC)c(OC)c2)s1 , please. 9

Tell me the measured % Cell Death of c1ccc2cc3c(Nc4ccc(N5CCOCC5)cc4)ccnc3cc2c1 , please. 106

Tell me the measured % Cell Death of COc1ccc(-c2cc(=O)oc3c4c(ccc23)OCN(Cc2ccc(F)cc2)C4)cc1 , please. 29

Tell me the measured % Cell Death of COc1cc2c(cc1OC)C1=NNC(=O)C1=NC(C)(C)C2 , please. 106

Tell me the measured % Cell Death of CCCCNc1nc(NC(C)(C)C)nc(NC(C)(C)C)n1 , please. -7

Tell me the measured % Cell Death of COc1ccc(-n2ccnc2SCC(=O)Nc2cc(C)ccc2C)c(OC)c1 , please. 71

Tell me the measured % Cell Death of COc1ccc2nc(C)cc(Nc3cccc(O)c3)c2c1.Cl , please. 43

Tell me the measured % Cell Death of Cc1ccc(CSCc2ccc(C(=O)NC3CC3)o2)cc1 , please. -6

* * *

For each record, write down the corresponding % Cell Death.
assay_method_text: MMV: MTT Cytotoxicity Assay Day 7 pi of Assay #7 (compound washed out Day 1 pi), U87-CD4-CXCR4 cells, % cell death @ 5mM compound
Assay type: toxicity, cell-based
setup_conditions: human, u87-cd4-cxcr4, 5000 µM

Tell me the measured % Cell Death of O=C(O)C1Cc2c([nH]c3ccccc23)C(c2ccc(Cl)cc2Cl)N1 (stereo not given) , please. -34

Tell me the measured % Cell Death of N#Cc1nc(Cc2cccc3ccccc23)oc1N1CCN(C(c2ccccc2)c2ccccc2)CC1 , please. 93

Tell me the measured % Cell Death of CCOC(=O)c1c[nH]c2c(CC)cccc2c1=O , please. 14

Tell me the measured % Cell Death of CCOc1cc(CNC(C)C(O)c2ccccc2)cc(Cl)c1OCC (stereo not given) , please. 25

Tell me the measured % Cell Death of Cc1ccc(N2C3c4ccccc4N(S(=O)(=O)c4ccc(C)cc4)C2c2ccccc2N3S(=O)(=O)c2ccc(C)cc2)cc1 , please. -17

Tell me the measured % Cell Death of O=C(Nc1cccc(-c2nc3ccccc3[nH]2)c1)c1cccc(NC(=O)c2ccco2)c1 , please. -31

Tell me the measured % Cell Death of COc1ccc(-c2cc3c(nn2)-c2ccccc2C3=O)cc1 , please. 13

Tell me the measured % Cell Death of FC(F)(F)c1cccc(CNC2CCN(CCc3ccccc3)CC2)c1 , please. -15

Tell me the measured % Cell Death of CCOc1ccc(N2C(N)=NC(N)=NC2(C)C)cc1.Cl , please. 35

Tell me the measured % Cell Death of COc1ccccc1N1CCN(C(CNS(=O)(=O)c2ccc(Cl)cc2)c2cccnc2)CC1 (stereo not given) , please. 81

Tell me the measured % Cell Death of CCCc1c(C)nc2ccccc2c1O , please. 31

Tell me the measured % Cell Death of CCN(CC)CCCNc1nc(-c2ccc(Cl)cc2)nc2ccccc12 , please. 18

Tell me the measured % Cell Death of Brc1ccc(Nc2nc3ccccc3nc2Nc2ccc(Br)cc2)cc1 , please. -10

Tell me the measured % Cell Death of COc1ccc(-c2cn3c(C(=O)Nc4ccccc4Cl)c(-c4ccccc4)c4c3n2CCCC4)cc1 , please. -5

Tell me the measured % Cell Death of CC(C)=CCN1CCC(C(=O)Nc2ccc(-c3nc4ccccc4[nH]3)cc2)CC1 , please. 4

Tell me the measured % Cell Death of CCOc1cc2c(cc1OCC)C(c1cc(Cl)ccc1O)NCC2 (stereo not given) , please. 3

Tell me the measured % Cell Death of O=C(NC1CCCC1)c1ccc(N2CCC(NCc3cccc(C(F)(F)F)c3)CC2)cc1 , please. 7

Tell me the measured % Cell Death of COc1cccc(NC(=O)Cn2c(C)c(C#N)c3ccccc32)c1 , please. -5

Tell me the measured % Cell Death of OC(CNCC1CCCO1)Cn1c2ccc(Cl)cc2c2cc(Cl)ccc21 (stereo not given) , please. -28

Tell me the measured % Cell Death of CC(C)(C)c1ccc(C2CC3=Nc4ccccc4N(C(=O)c4ccccc4Cl)C(c4ccc(F)cc4)C3=C(O)C2)cc1 (stereo not given) , please. 17

Tell me the measured % Cell Death of CCc1ccc(Nc2cc(C)c3ccc(O)cc3n2)cc1.Cl , please. 95

Tell me the measured % Cell Death of CCOc1cc2c(cc1OCC)C(c1cc(OC)c(O)cc1Cl)NCC2 (stereo not given) , please. -19

Tell me the measured % Cell Death of COCCNCC(O)Cn1c2ccc(Cl)cc2c2cc(Cl)ccc21 (stereo not given) , please. -16

Tell me the measured % Cell Death of Cc1ccc(C(=O)c2oc3ccc4c(C)cc(=O)oc4c3c2C)cc1 , please. 22

Tell me the measured % Cell Death of Cc1ccc2cc3c(N)c4c(C)ccc(C)c4nc3nc2c1 , please. -5

Tell me the measured % Cell Death of CN1C=C(c2ccc3ccccc3n2)C(c2c[nH]c3ccccc23)c2ccccc21 (stereo not given) , please. 38

Tell me the measured % Cell Death of CCOc1ccc(-n2cc(-c3ccccc3)c3c(SCc4cc(C)ccc4C)ncnc32)cc1 , please. -9

Tell me the measured % Cell Death of C[n+]1c2ccccc2nc2ccc(NCCO)cc21 , please. -30

Tell me the measured % Cell Death of Cl.OC(CNCc1ccccc1)Cn1c2ccccc2c2ccccc21 (stereo not given) , please. -9

Tell me the measured % Cell Death of Cc1cc(C)cc(Nc2cc(C)nc3nc(C(F)(F)F)nn23)c1 , please. -6

Tell me the measured % Cell Death of Cc1cccc(N2C(=O)C3C(C2=O)C2(c4ccccc4)C(=O)C3(c3ccccc3)C(c3ccc4c(c3)OCO4)=C2c2ccc3c(c2)OCO3)c1 (stereo not given) , please. -2

Tell me the measured % Cell Death of Cc1c(C)n(Cc2ccc(F)cc2)c2ccc(C(=O)NCc3ccco3)cc12 , please. 18

Tell me the measured % Cell Death of CC(=O)NCCc1nc2ccccc2n1Cc1ccc(C(C)C)cc1 , please. -3

Tell me the measured % Cell Death of CCCc1c(CC)c(=N)c2ccccc2n1C , please. -9

Tell me the measured % Cell Death of CCOc1ccc(CN2CCN(CC(O)COc3ccc(OCC(O)CN4CCN(Cc5ccc(OCC)cc5)CC4)cc3)CC2)cc1 (stereo not given) , please. 21

Taken from ChEMBL document CHEMBL3301472.
